- ASSAY METHOD TEXT: Metabolic stability in dog liver microsomes
- Assay type: in vitro ADME
- EXPERIMENTAL CONTEXT: maximal oral bioavailability calculated with well stirred liver model; 1 µM compound, 0.5 mg/mL protein; '(stable)' given beside 100
Reported Fmax, dog microsomes values for the following compounds.
Use % as the unit, but write only the number.

stdin: Dear colleague, please send me the reported Fmax, dog microsomes for CC(C)(O)C1CCN(c2nc(NC3CN(S(C)(=O)=O)C3)nc3c2cnn3-c2cccc(C(F)F)c2)CC1 when you can.
stdout: 80

Field: next compound
stdin: Dear colleague, please send me the reported Fmax, dog microsomes for CC(C)(O)C1CCN(c2nc(NC3CCS(=O)(=O)CC3)nc3c2cnn3-c2cccc(C(F)F)c2)CC1 when you can.
stdout: 89
